Hey, just so you know, these numbers are from patent US20260132140A1.

assayed target: UniProt:O14757
Sequence (O14757 1-476): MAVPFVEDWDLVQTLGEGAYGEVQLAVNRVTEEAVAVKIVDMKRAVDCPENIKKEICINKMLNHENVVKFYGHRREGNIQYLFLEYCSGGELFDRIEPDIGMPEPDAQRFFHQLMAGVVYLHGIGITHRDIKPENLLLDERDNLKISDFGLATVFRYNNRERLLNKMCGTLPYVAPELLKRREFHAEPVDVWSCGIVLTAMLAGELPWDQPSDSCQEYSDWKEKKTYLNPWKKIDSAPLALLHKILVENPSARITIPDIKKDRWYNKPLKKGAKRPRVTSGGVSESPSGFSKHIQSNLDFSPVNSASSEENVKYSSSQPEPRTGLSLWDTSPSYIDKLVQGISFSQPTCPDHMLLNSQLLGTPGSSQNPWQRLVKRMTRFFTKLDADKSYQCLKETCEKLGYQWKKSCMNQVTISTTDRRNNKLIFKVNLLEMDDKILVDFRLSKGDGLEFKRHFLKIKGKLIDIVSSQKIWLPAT
pIC50: −log10 of the molar value.
parameter measured: pIC50

These recorded examples may help you get a feel for the data.
1. COc1cc(N2CC3(CN(C)C3)C2)ccc1-n1cnc(Nc2cnc(C#N)cn2)c1; 7.50 to 8.00
2. C[C@@]1(N)CCN(c2ccc(-n3cnc(Nc4cnc(C#N)cn4)c3)cc2)C1; 7.50 to 8.00
3. COc1cc(N2C[C@H]3C[C@@H]2CN3C)ccc1-n1cnc(Nc2cnc(C#N)cn2)c1; 7.50 to 8.00
4. CN(C)[C@@H]1CCN(c2ccc(-n3cnc(Nc4cnc(C#N)cn4)c3)cc2)C1; > 8.00

For N#Cc1cnc(Nc2cn(-c3ccc(N4CCN(CCF)CC4)cc3)cn2)cn1 the molecule record lists pIC50 as 7.00 to 7.50

For C[C@@H]1CCN1C1CCN(c2ccc(-n3cnc(Nc4cnc(C#N)cn4)c3)cc2)C1 (single isomer, unassigned) the molecule record lists pIC50 as 7.50 to 8.00

For CN1C[C@H]2C[C@@H]1CN2c1ccc(-n2cnc(Nc3cnc(C#N)cn3)c2)cc1 the molecule record lists pIC50 as 7.50 to 8.00

For CCN1CCC(Nc2ccc(-n3cnc(Nc4cnc(C#N)cn4)c3)c(OC)c2)CC1 the molecule record lists pIC50 as 7.50 to 8.00

For CN1C[C@H]2CN(c3ccc(-n4cnc(Nc5cnc(C#N)cn5)c4)c(F)c3)[C@H]2C1 the molecule record lists pIC50 as 7.00 to 7.50

For CN(CCO)C1CCN(c2cccc(-n3cnc(Nc4cnc(C#N)cn4)c3)c2)C1 (single isomer, unassigned) the molecule record lists pIC50 as 7.50 to 8.00

For CN1CCN(c2ccc(-n3cnc(Nc4cnc(C#N)cn4)c3)cn2)CC1 the molecule record lists pIC50 as 6.50 to 7.00

For Cc1cc(N2CCN(C)CC2)ccc1-n1cnc(Nc2cnc(C#N)cn2)c1 the molecule record lists pIC50 as 6.00 to 6.50

For CCN(C)[C@@H]1CCN(c2ccc(-n3cnc(Nc4cnc(C#N)cn4)c3)cc2)C1 the molecule record lists pIC50 as > 8.00

For N#Cc1cnc(Nc2cn(-c3cccc(N4C[C@@H](N)[C@@H](F)C4)c3)cn2)cn1 the molecule record lists pIC50 as 7.00 to 7.50

For CN1C[C@H]2CN(c3ccc(-n4cnc(Nc5cnc(C#N)cn5)c4)cc3)[C@H]2C1 the molecule record lists pIC50 as 7.00 to 7.50

For COc1cc(N2CC[C@@H](N3CCCC3)C2)ccc1-n1cnc(Nc2cnc(C#N)cn2)c1 the molecule record lists pIC50 as > 8.00

---

assayed target: human Chk1 kinase (Homo sapiens)
pIC50: −log10 of the molar value.
parameter measured: pIC50

These recorded examples may help you get a feel for the data.
1. CN(C)[C@H]1CN(c2ccc(-n3cnc(Nc4cnc(C#N)cn4)c3)cc2)C[C@H]1F [Example 62]; 7.50 to 8.00
2. CCN1CCN(c2ccc(-n3cnc(Nc4cnc(C#N)cn4)c3)cc2)CC1 [Example 185]; 7.50 to 8.00
3. CN(C)c1cc(N2CC[C@@H](N(C)C)C2)ccc1-n1cnc(Nc2cnc(C#N)cn2)c1 [Example 83]; 6.00 to 6.50
4. N#Cc1cnc(Nc2cn(-c3ccc(N4CCC(N5CCC5)C4)cc3)cn2)cn1 (single isomer, unassigned) [Example 114]; > 8.00
5. CN1C[C@H](OCc2ccc(-n3cnc(Nc4cnc(C#N)cn4)c3)cc2)[C@@H](F)C1 [Example 24]; 7.00 to 7.50

For C[C@@H]1C[C@@H](N)CN1c1ccc(-n2cnc(Nc3cnc(C#N)cn3)c2)cc1 [Example 165] the compound record lists pIC50 as > 8.00

For CN1C[C@@H]2CN(c3ccc(-n4cnc(Nc5cnc(C#N)cn5)c4)cc3)C[C@@H]21 [Example 1] the compound record lists pIC50 as > 8.00

For COc1cc(CN2CCOCC2)ccc1-n1cnc(Nc2cnc(C#N)cn2)c1 [Example 173] the compound record lists pIC50 as 7.00 to 7.50

---

assayed target: human Chk2 kinase (Homo sapiens, UniProt O96017)
Sequence (O96017 whole entry): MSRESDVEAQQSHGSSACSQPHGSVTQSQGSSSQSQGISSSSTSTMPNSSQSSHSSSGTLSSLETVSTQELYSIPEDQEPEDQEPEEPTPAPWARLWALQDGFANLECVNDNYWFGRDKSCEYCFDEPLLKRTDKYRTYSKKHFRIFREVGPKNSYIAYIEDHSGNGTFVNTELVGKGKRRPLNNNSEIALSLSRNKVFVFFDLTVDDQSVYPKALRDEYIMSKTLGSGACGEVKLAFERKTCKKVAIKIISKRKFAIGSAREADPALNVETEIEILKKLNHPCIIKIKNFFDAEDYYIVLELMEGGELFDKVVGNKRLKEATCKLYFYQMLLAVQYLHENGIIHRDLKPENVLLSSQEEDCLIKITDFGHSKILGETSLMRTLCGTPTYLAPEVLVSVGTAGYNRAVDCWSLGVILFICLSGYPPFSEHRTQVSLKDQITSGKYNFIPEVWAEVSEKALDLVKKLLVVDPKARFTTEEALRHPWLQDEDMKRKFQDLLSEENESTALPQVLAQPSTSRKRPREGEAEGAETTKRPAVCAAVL
protocol notes: biochemical
pIC50: −log10 of the molar value.
parameter measured: pIC50

For N#Cc1cnc(Nc2cn(-c3ccc(N4CCC(N5CCC5)C4)cc3)cn2)cn1 (single isomer, unassigned) [Example 113] the molecule record lists pIC50 as 4.00 to 5.00

For CN1C[C@H](OCc2ccc(-n3cnc(Nc4cnc(C#N)cn4)c3)cc2)[C@@H](F)C1 [Example 24] the molecule record lists pIC50 as < 4.00

For N#Cc1cnc(Nc2cn(-c3ccc(N4CCC(N5CC(F)C5)C4)cc3)cn2)cn1 (single isomer, unassigned) [Example 129] the molecule record lists pIC50 as < 4.00

---

assayed target: human Chk2 kinase (Homo sapiens)
pIC50: −log10 of the molar value.
Reported pIC50 values follow for various compounds

These recorded examples may help you get a feel for the data.
1) CN(C)CC1CN(c2cccc(-n3cnc(Nc4cnc(C#N)cn4)c3)c2)CCO1 (single isomer, unassigned) [Example 108]; 4.00 to 5.00
2) CN(C)C1CCCN(c2cccc(-n3cnc(Nc4cnc(C#N)cn4)c3)c2)C1 (single isomer, unassigned) [Example 112]; 4.00 to 5.00
3) N#Cc1cnc(Nc2cn(-c3ccc(N4CCC(N5CC6(CCC6)C5)C4)cc3)cn2)cn1 (single isomer, unassigned) [Example 132]; 5.00 to 6.00

Field pIC50 (system: human Chk2 kinase (Homo sapiens)) for entry N#Cc1cnc(Nc2cn(-c3cccc(N4CCC(N)C(F)(F)C4)c3)cn2)cn1 (single isomer, unassigned) [Example 167] = < 4.00

Field pIC50 (system: human Chk2 kinase (Homo sapiens)) for entry CN1CCOC(c2ccc(-n3cnc(Nc4cnc(C#N)cn4)c3)cc2)C1 (single isomer, unassigned) [Example 106] = 4.00 to 5.00

Field pIC50 (system: human Chk2 kinase (Homo sapiens)) for entry CN1CCC12CCN(c1ccc(-n3cnc(Nc4cnc(C#N)cn4)c3)cc1)C2 (single isomer, unassigned) [Example 128] = < 4.00

Field pIC50 (system: human Chk2 kinase (Homo sapiens)) for entry N#Cc1cnc(Nc2cn(-c3ccc(N4CCN5CCCC5C4)cc3)cn2)cn1 (single isomer, unassigned) [Example 118] = < 4.00

---

assayed target: human Chk1 kinase (Homo sapiens)
pIC50: −log10 of the molar value.
Reported pIC50 values follow for various compounds

These recorded examples may help you get a feel for the data.
1) CN(C)CC1CN(c2cccc(-n3cnc(Nc4cnc(C#N)cn4)c3)c2)CCO1 (single isomer, unassigned) [Example 107]; 7.00 to 7.50
2) CN1CC[C@@H]2[C@H]1CCN2c1ccc(-n2cnc(Nc3cnc(C#N)cn3)c2)cc1; 7.50 to 8.00
3) CC(C)(C)N1CC(Oc2ccc(-n3cnc(Nc4cnc(C#N)cn4)c3)cc2)C1; 7.50 to 8.00
4) N#Cc1cnc(Nc2cn(-c3ccc(N4CCN(CCC(F)(F)F)CC4)cc3)cn2)cn1; 6.50 to 7.00

Field pIC50 (system: human Chk1 kinase (Homo sapiens)) for entry CN1CCCC12CN(c1cccc(-n3cnc(Nc4cnc(C#N)cn4)c3)c1)C2 = 7.50 to 8.00

Field pIC50 (system: human Chk1 kinase (Homo sapiens)) for entry CN[C@@H]1CCN(c2ccc(-n3cnc(Nc4cnc(C#N)cn4)c3)cc2)C1 = > 8.00

---

assayed target: human Chk2 kinase (Homo sapiens)
protocol notes: biochemical
parameter measured: IC50

These recorded examples may help you get a feel for the data.
1) CN(C)C1CCCN(c2cccc(-n3cnc(Nc4cnc(C#N)cn4)c3)c2)C1 (single isomer, unassigned); 10 to 100 µM
2) CN1C[C@H](F)[C@H](Oc2cccc(-n3cnc(Nc4cnc(C#N)cn4)c3)c2)C1; 10 to 100 µM
3) N#Cc1cnc(Nc2cn(-c3ccc(N4C[C@H](N)C5(CC5)C4)cc3)cn2)cn1; 1 to 10 µM
4) CN(CCO)C1CCN(c2cccc(-n3cnc(Nc4cnc(C#N)cn4)c3)c2)C1 (single isomer, unassigned) [Example 110]; 10 to 100 µM
5) CN(C)C[C@@H]1CCCN1c1ccc(-n2cnc(Nc3cnc(C#N)cn3)c2)cc1; 10 to 100 µM

For N#Cc1cnc(Nc2cn(-c3ccc(CN4CCC(F)CC4)cc3)cn2)cn1 the compound record lists IC50 as 10 to 100 µM
